Tested on: SN12C renal
Assay: NCI tumour cell line growth inhibition, 48 h; in the data active means GI50 below about 0.43 µM; inactive means the rest
Labels: active, inactive

>>> answer_label("CC1(C)N=C(N)N=C(N)N1c1ccc(CCC(=O)Nc2ccc(S(=O)(=O)F)cc2)cc1")
"inactive"
>>> answer_label("COC1N(C2CC(O)C(CO)O2)C(=O)NC(=O)C1(F)Br (stereo not given)")
"inactive"
>>> answer_label("COc1ccc2sc3c(NCCCN)nc4ccccc4c3c(=O)c2c1")
"inactive"
>>> answer_label("Cc1c2ccnc(C(N)=O)c2c(C)c2c1[nH]c1ccccc12")
"inactive"
>>> answer_label("COc1ccc(OC)c(/C=C/c2nc(=S)n(-c3ccc(Cl)cc3)[nH]2)c1")
"inactive"
>>> answer_label("CCN(CC)CCCNc1ccc(C)c2sc3ccccc3c(=O)c12")
"inactive"
>>> answer_label("CC(=O)O[C@H]1C(=O)[C@@]2(C)C([C@H](OC(=O)c3ccccc3)[C@]3(O)C[C@H](OC(=O)[C@H](O)[C@@H](NC(=O)c4ccccc4)c4ccccc4)C(C)=C1C3(C)C)[C@]1(OC(C)=O)CO[C@@H]1C[C@@H]2O (stereo not given in full)")
"active"
>>> answer_label("CNCc1cccc2c1OCCOCCOCCN(C)S(=O)(=O)c1ccc(cc1)-c1cnc(N)c(n1)C(=O)N2")
"inactive"
>>> answer_label("FC(F)(F)Oc1cccc(-c2cc(NCCCCCCNc3cc(-c4cccc(OC(F)(F)F)c4)nc4ccc(N5CCCC5)cc34)c3cc(N4CCCC4)ccc3n2)c1")
"inactive"
>>> answer_label("Cn1c([N+](=O)[O-])cnc1C=C1C(=O)c2ccccc2C1=O")
"inactive"

----------
System: UACC-257 melanoma
Assay: NCI tumour cell line growth inhibition, 48 h
Quantity Measured: GI50

>>> recorded_measurement("Cn1nccc1Nc1nccc(-c2ccn([C@H](CO)c3ccc(Cl)c(F)c3)c(=O)c2)n1")
"158 nM"
>>> recorded_measurement("COC1N(C2CC(O)C(CO)O2)C(=O)NC(=O)C1(F)Br (configuration not stated)")
"42800 nM"
>>> recorded_measurement("CNC(=O)c1ncccc1Nc1nc(Nc2cc3c(cc2OC)CCCN3C(=O)CN(C)C)nc2[nH]ccc12")
"395 nM"
>>> recorded_measurement("O=C1c2cccc(Oc3ccccc3)c2C(=O)c2cccc(Oc3ccccc3)c21")
"> 100000 nM"
>>> recorded_measurement("C[C@]12CC[C@H]3[C@@H](CCC4=CC(=O)CC[C@@]43C)[C@@H]1CC[C@@H]2c1csc(N)n1")
"2750 nM"
>>> recorded_measurement("CCN(CC)Cc1cc(Nc2nc(NC3CCC(N(C)C)CC3)c3ccccc3n2)ccc1OC (configuration not stated)")
"1820 nM"
>>> recorded_measurement("CC(=O)ON1CCCC(P(=O)(OCOC(=O)C(C)(C)C)OCOC(=O)C(C)(C)C)C1=O (configuration not stated)")
"2410 nM"

----------
System: M14 melanoma
Assay: NCI tumour cell line growth inhibition, 48 h; in the data active = GI50 below about 0.43 µM; inactive = the rest
Outcome codes: label 1 for active, label 0 for inactive

>>> answer_label("CNCc1cccc2c1OCCOCCOCCN(C)S(=O)(=O)c1ccc(cc1)-c1cnc(N)c(n1)C(=O)N2")
"label 0"
>>> answer_label("C[C@]12CC[C@H]3[C@@H](CCC4=CC(=O)CC[C@@]43C)[C@@H]1CC[C@@H]2c1csc(N)n1")
"label 0"
>>> answer_label("CCn1cc(C(=O)O)c(=O)c2cc(F)c(N3CCN(S(=O)(=O)c4cccc5ccccc45)CC3)cc21")
"label 0"
>>> answer_label("COc1ccc2c(N)ncc(C#Cc3cc(C(=O)Nc4ccc(CN5CCN(C)CC5)c(C(F)(F)F)c4)cnc3C)c2c1")
"label 1"
>>> answer_label("COC1N(C2CC(O)C(CO)O2)C(=O)NC(=O)C1(F)Br (stereo not drawn)")
"label 0"
>>> answer_label("CCN(CC)Cc1cc(Nc2nc(NC3CCC(N(C)C)CC3)c3ccccc3n2)ccc1OC (stereo not drawn)")
"label 0"
>>> answer_label("O=C1NC(=N[C@@H](CO)c2ccccc2)S/C1=C\\c1ccc2ncccc2c1")
"label 0"
>>> answer_label("CNC(=O)c1ncccc1Nc1nc(Nc2cc3c(cc2OC)CCCN3C(=O)CN(C)C)nc2[nH]ccc12")
"label 0"

----------
Tested on: PC-3 prostate
Test: NCI tumour cell line growth inhibition, 48 h; in the data active = GI50 below about 0.43 µM; inactive = the rest
Classes used: T (active), F (inactive)

>>> answer_label("Cn1c([N+](=O)[O-])cnc1C=C1C(=O)c2ccccc2C1=O")
"F"
>>> answer_label("COc1ccc(C(=O)c2cc(OC)c(OC)c(OC)c2OC)cc1O")
"F"
>>> answer_label("COc1ccc2c(N)ncc(C#Cc3cc(C(=O)Nc4ccc(CN5CCN(C)CC5)c(C(F)(F)F)c4)cnc3C)c2c1")
"F"
>>> answer_label("COc1ccc(OC)c(NCC(=O)n2nc(/C=C\\c3ccc(O)c(OC)c3)cc2/C=C\\c2ccc(O)c(OC)c2)c1")
"F"
>>> answer_label("CCN1C(=S)N(CC)C2C1NC(=S)N2/N=C/C=C/c1ccccc1OC (stereo not given)")
"T"

----------
Test system: HS 578T breast
Assay: NCI tumour cell line growth inhibition, 48 h
Reported TGI values follow for various compounds
Quantity Measured: TGI (µM)

>>> recorded_measurement("S=C(Cc1ccc2c(c1)Sc1ccccc1O2)N1CCOCC1")
61.6
>>> recorded_measurement("CCN=c1sc2c(n1NC(=O)c1cc3ccc1CCc1ccc(cc1)CC3)C(=O)c1ccccc1C2=O")
2.28
>>> recorded_measurement("CC(C)C(Br)CCC1=CCC(Br)(Br)C1 (stereo not given)")
47.4

----------
Test system: TK-10 renal
Test: NCI tumour cell line growth inhibition, 48 h
Quantity Measured: TGI (µM)

>>> recorded_measurement("CCOC1C=CC(=O)C(CO)O1 (configuration not stated)")
22.7
>>> recorded_measurement("COc1ccc2nc(NC(=O)/C(C#N)=C/c3ccccc3)sc2c1")
88
>>> recorded_measurement("O=C(/C=C/c1ccc(O)c(O)c1)OCCc1ccc2ccccc2c1")
20.4
>>> recorded_measurement("FC(F)(F)Oc1cccc(-c2cc(NCCCCCCNc3cc(-c4cccc(OC(F)(F)F)c4)nc4ccc(N5CCCC5)cc34)c3cc(N4CCCC4)ccc3n2)c1")
3.37
>>> recorded_measurement("COc1ccc(C)cc1N1C(=O)C2ON(Cc3ccc(CC(N)=O)cc3)C(c3c4ccccc4c(Cl)c4ccccc34)C2C1=O (configuration not stated)")
49.5
>>> recorded_measurement("O=C1C=C[C@H](O)[C@@]2(CO)O[C@@H]12")
29.8
>>> recorded_measurement("O=C1/C(=C\\c2ccccc2)CN(C(=O)CCN2CCCCC2)C/C1=C/c1ccccc1")
10.9
>>> recorded_measurement("Cc1c(C)n(-c2ccccc2)c2nc(S(C)=O)nc(S(C)=O)c12 (configuration not stated)")
7.36
>>> recorded_measurement("O=C1C=CC2(O[C@H](c3ccccc3)[C@@H](c3ccccc3)O2)[C@H](Sc2ccccc2O)C1")
0.966
>>> recorded_measurement("COc1ccc2c(N)ncc(C#Cc3cc(C(=O)Nc4ccc(CN5CCN(C)CC5)c(C(F)(F)F)c4)cnc3C)c2c1")
2.19

----------
Test system: UO-31 renal
Test: NCI tumour cell line growth inhibition, 48 h
Quantity Measured: GI50

>>> recorded_measurement("COc1ccc2sc3c(NCCCN)nc4ccccc4c3c(=O)c2c1")
"1.43 µM"
>>> recorded_measurement("N#CC1(c2ccc(NC(=O)c3cccnc3NCc3ccncc3)cc2)CCCC1")
"12.6 µM"
>>> recorded_measurement("Cc1c(C(=N)C(C#N)C#N)c(=N)oc2c1ccc1ccccc12")
"8.23 µM"
>>> recorded_measurement("N#CC(C(=O)C(=O)Nc1c(Cl)cccc1Cl)c1ccccc1 (stereo unspecified)")
"> 100 µM"
>>> recorded_measurement("COc1cc2c(cc1Nc1nc(N3CCc4ccccc43)c3cc[nH]c3n1)N(C(=O)CN(C)C)CC2")
"5.26 µM"
>>> recorded_measurement("O=C(NCCNCCO)c1ccc2c(c1)oc1cc3ccccc3c(=O)n12")
"16.6 µM"

----------
Each record here notes measured TGI.
Test system: M14 melanoma
Assay: NCI tumour cell line growth inhibition, 48 h
Quantity Measured: TGI

>>> recorded_measurement("COc1cc(C)c(CC/C(C)=C/Cc2cc(O)ccc2O)c(C)c1C")
"> 25 µM"
>>> recorded_measurement("Cc1ccc2c(c1)CN1c3ccc(C)cc3CN2C1c1ccccc1O")
"> 100 µM"
>>> recorded_measurement("O=[N+]([O-])c1ccc(C[P+]2(c3ccccc3)CCCCC2)cc1")
"> 100 µM"
>>> recorded_measurement("Cc1cc([N+](=O)[O-])c(C)c2c1[nH]c1ccc(Cl)cc12")
"> 100 µM"
>>> recorded_measurement("CCOC(=O)c1csc(NC(=O)C(C)N2CCCC2)n1 (stereo unspecified)")
"> 100 µM"
>>> recorded_measurement("COc1ccc2sc3c(NCCCN)nc4ccccc4c3c(=O)c2c1")
"3.18 µM"
>>> recorded_measurement("CC1(C)OC[C@@H]([C@@]2(CO[Si](c3ccccc3)(c3ccccc3)C(C)(C)C)CC=CC(=O)O2)O1")
"60.5 µM"
>>> recorded_measurement("CCOC1C=CC(=O)C(CO)O1 (stereo unspecified)")
"31.8 µM"
>>> recorded_measurement("CC(C)(CO)CNC(=O)c1ccc2[nH]c(O)c(N=Nc3ccc(S(N)(=O)=O)cc3)c2c1")
"> 25 µM"
>>> recorded_measurement("O=c1ccc2ccc(S)cc2o1")
"> 100 µM"
>>> recorded_measurement("Nc1ncnc2c1N=C(c1ccc3c(c1)OCO3)CC(c1ccc(Cl)cc1)N2 (stereo unspecified)")
"> 100 µM"
